assay: Inhibition of FCgamma receptor in human PBMC assessed as inhibition of opsonized RBC phagocytosis incubated for 1 hr prior to RBC addition measured after 2 hrs by monocyte monolayer assay
readout: pIC50
One number for each entry, as −log10 of the molar value.

Ask: Consider the molecule `Cc1cc(SSc2cc(C)nn2-c2ccccc2)n(-c2ccccc2)n1` . State its measured pIC50.
Result: 7.00
